A collection of binders and their measured Kd
biological target: T1, serum purified human Complement Factor D (human, UniProt P00746 26-253); assay: SPR Biacore, antibody on protein A chip, single cycle kinetics, 37 C
T1 construct: Serum purified protein flowed over the captured antibodies; also called CFD; human CFD
T1 sequence (P00746 26-253): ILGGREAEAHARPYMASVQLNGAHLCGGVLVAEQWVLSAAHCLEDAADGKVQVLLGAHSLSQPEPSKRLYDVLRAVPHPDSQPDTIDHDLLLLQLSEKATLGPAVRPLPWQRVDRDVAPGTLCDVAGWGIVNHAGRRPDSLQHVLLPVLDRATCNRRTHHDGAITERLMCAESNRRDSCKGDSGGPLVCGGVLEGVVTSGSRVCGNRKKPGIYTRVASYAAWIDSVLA
Form entry: value (pM) — number only.

Answered examples (3):
binder="31S34I54I59D84S / 54R101V (antibody, V domains shown, KCD119 TAF variant; also called 3I534I54I59D84S / 54R101V) VH: EVQLVESGGGLVQPGGSLRLSCAASGYTFTSYYINWVRQAPGKGLEWIGDINPITGDTDYNADFKRRFTFSLDTSKSTAYLQMSSLRAEDTAVYYCTREGPSFAYWGQGTLVTVSS VL: DIQLTQSPSSLSASVGDRVTITCRSSQTIVHSNGDTYLEWYQQKPGKAPNLLIRKVSNRFSGVPSRFSGSGSGTDFTLTISSLQPEDFATYYCFQGSHVPVTFGQGTKVEIKR" measured_number=3.92
binder="34I54I59D84S / 54G101V (antibody, V domains shown, also called 34I54I59D845 / 54G101V) VH: EVQLVESGGGLVQPGGSLRLSCAASGYTFTDYYINWVRQAPGKGLEWIGDINPITGDTDYNADFKRRFTFSLDTSKSTAYLQMSSLRAEDTAVYYCTREGPSFAYWGQGTLVTVSS VL: DIQLTQSPSSLSASVGDRVTITCRSSQTIVHSNGDTYLEWYQQKPGKAPNLLIGKVSNRFSGVPSRFSGSGSGTDFTLTISSLQPEDFATYYCFQGSHVPVTFGQGTKVEIK" measured_number=7.74
binder="KCD119 TAF / KCD119 TAF (antibody, V domains shown, Humanized KCD119; tested as full antibody captured on protein A; also called D19 TAF) VH: EVQLVESGGGLVQPGGSLRLSCAASGYTFTDYYMNWVRQAPGKGLEWIGDINPNTGDTSYNADFKRRFTFSLDTSKSTAYLQMNSLRAEDTAVYYCTREGPSFAYWGQGTLVTVSS VL: DIQLTQSPSSLSASVGDRVTITCRSSQTIVHSNGDTYLEWYQQKPGKAPNLLIYKVSNRFSGVPSRFSGSGSGTDFTLTISSLQPEDFATYYCFQGSHVPPTFGQGTKVEIK" measured_number=499

Kindly review the next binder as well.
Look up and state reported Kd for 31S34I54I59D84S / 54G101V (antibody, V domains shown, KCD119 TAF variant; full antibody captured on protein A; also called 31S34I54I59D845 / 54G101V; 3I534I54I59D84S / 54G101V) VH: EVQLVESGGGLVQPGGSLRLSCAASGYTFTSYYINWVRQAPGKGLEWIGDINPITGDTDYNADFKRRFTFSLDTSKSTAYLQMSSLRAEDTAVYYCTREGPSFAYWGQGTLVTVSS VL: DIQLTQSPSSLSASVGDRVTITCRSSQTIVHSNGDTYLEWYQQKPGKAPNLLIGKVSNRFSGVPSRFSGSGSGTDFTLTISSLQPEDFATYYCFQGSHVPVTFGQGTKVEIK
6.11

Source listed as patent US20180334496A1.
